Assay: Drug concentration in Sprague-Dawley rat CSF at 5 mg/kg, sc after 1 hr
Assay type: ADME, organism-based, Cerebrospinal fluid
Set-up: dose 5 mg/kg, route subcutaneous
Details: read-out: Drug uptake
concentration at 1 h listing for selected molecules.
Give the value, in units of nM, as a plain number.

{"columns": ["Molecule", "concentration at 1 h, nM"],
 "data": [
  ["O=C(Oc1ccc(Br)cc1)N1CCN2CCC1CC2 [SSR180711]", 774]
]}

Could you now look at the following molecule, please?
Quick check: concentration at 1 h of `O=C(Oc1ccc2ccccc2c1)N1CCN2CCC1CC2` ? 343

----------
IC50 listing for selected compounds.
Target: Neuronal acetylcholine receptor; alpha4/beta2 (Rattus norvegicus, UniProt P09483+P12390)
Sequence (P09483 whole entry): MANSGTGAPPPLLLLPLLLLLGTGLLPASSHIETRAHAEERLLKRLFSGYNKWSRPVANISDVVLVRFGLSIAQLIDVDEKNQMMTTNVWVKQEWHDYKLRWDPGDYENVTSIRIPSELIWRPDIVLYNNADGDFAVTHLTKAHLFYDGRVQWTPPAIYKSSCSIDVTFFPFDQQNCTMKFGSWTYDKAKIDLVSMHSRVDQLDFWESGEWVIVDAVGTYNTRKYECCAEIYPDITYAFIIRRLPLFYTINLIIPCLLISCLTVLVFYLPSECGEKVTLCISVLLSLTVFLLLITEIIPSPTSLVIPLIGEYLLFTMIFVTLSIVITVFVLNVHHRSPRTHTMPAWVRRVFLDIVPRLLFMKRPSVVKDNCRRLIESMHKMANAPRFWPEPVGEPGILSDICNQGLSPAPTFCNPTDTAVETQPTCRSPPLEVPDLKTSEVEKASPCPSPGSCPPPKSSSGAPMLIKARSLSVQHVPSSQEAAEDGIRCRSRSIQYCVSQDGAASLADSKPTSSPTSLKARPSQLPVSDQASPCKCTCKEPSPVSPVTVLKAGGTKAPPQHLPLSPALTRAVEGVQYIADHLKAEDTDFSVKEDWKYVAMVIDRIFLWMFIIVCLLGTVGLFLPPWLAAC
Sequence (P12390 whole entry): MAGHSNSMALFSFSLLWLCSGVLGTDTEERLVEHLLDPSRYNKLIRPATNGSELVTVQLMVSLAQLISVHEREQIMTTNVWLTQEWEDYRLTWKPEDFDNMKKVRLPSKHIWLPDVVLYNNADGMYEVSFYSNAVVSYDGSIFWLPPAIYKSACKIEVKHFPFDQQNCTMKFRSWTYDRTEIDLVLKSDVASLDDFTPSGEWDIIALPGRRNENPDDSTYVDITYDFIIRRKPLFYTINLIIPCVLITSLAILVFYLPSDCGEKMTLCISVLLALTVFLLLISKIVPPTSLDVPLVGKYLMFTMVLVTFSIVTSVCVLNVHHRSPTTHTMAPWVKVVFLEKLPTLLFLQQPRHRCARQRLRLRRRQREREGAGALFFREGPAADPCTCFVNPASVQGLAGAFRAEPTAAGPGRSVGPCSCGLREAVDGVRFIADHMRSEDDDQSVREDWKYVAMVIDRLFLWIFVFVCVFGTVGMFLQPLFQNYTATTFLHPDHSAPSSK
Test: Displacement of L-[3H]Nicotine from alpha4beta2 nAChR in rat brain homogenate by rapid filtration method
Give the value, in units of µM, as a plain number.

{"columns": ["Chemical Structure", "Assay Target", "IC50, µM"],
 "data": [
  ["O=C(Oc1cccc(F)c1)N1CCN2CCC1CC2", "Neuronal acetylcholine receptor; alpha4/beta2 (Rattus norvegicus, UniProt P09483+P12390)", 1.06]
]}

Quick check: IC50 of `O=C(Oc1ccc(Br)c(Cl)c1)N1CCN2CCC1CC2` ? 7.12

----------
Activity listing for selected compounds.
Target: Neuronal acetylcholine receptor subunit alpha-7 (Rattus norvegicus)
Test: Agonist activity at rat alpha7 nAChR expressed in Xenopus oocytes at 32 uM by two-electrode voltage clamp technique relative to nicotine
Type: functional, cell-based
Conditions: Oocyte
Give the value, in units of %, as a plain number.

Below, 6 compounds whose answers are already recorded.
{"columns": ["Compound", "Result Unit", "Activity"],
 "data": [
  ["S=C(Oc1ccccc1)N1CCN2CCC1CC2", "%", 28],
  ["O=C(Oc1ccc(-c2cccnc2)cc1)N1CCN2CCC1CC2", "%", 189],
  ["O=C(Oc1ccccc1)N1CCN2CCC1CC2", "%", 99],
  ["O=C(Oc1ccc(-c2ccccc2)cc1)N1CCN2CCC1CC2", "%", 111],
  ["O=C(Oc1ccc(-c2ccncc2)cc1)N1CCN2CCC1CC2", "%", 191],
  ["CN1CCCN(C(=O)Oc2ccc(Br)cc2)CC1", "%", 10]
]}

Quick check: Activity of `O=C(Oc1cccc(-c2ccccc2)c1)N1CCN2CCC1CC2` ? 9

Quick check: Activity of O=C(Nc1ccc(Br)cc1)OC1CN2CCC1C2 (stereo unspecified) [QUINUCLIDINE CARBAMATE] ? 90

Quick check: Activity of `O=C(Oc1cccc(Cl)c1)N1CCN2CCC1CC2` ? 77

Quick check: Activity of `Cc1cc(OC(=O)N2CCN3CCC2CC3)ccc1Br` ? 83

Quick check: Activity of `O=C(Oc1cccc(F)c1)N1CCN2CCC1CC2` ? 47

Quick check: Activity of `O=C(Oc1ccc2ccccc2c1)N1CCN2CCC1CC2` ? 175

Quick check: Activity of `Cc1ccc(OC(=O)N2CCN3CCC2CC3)cc1` ? 202

Quick check: Activity of `O=C(Oc1ccc(Cl)c(Cl)c1)N1CCN2CCC1CC2` ? 195

Quick check: Activity of `O=C(c1ccccc1)c1cc(OC(=O)N2CCN3CCC2CC3)ccc1Br` ? 201

Quick check: Activity of `O=C(Oc1ccc(Oc2ccccc2)cc1)N1CCN2CCC1CC2` ? 241

Quick check: Activity of `O=C(Oc1ccc(Br)c(Cl)c1)N1CCN2CCC1CC2` ? 203

Quick check: Activity of `O=C(Oc1ccc(Br)cc1)N1CCCN2CCC1CC2` ? 27

Quick check: Activity of `O=C(Oc1ccc(-c2ccccn2)cc1)N1CCN2CCC1CC2` ? 174

Quick check: Activity of `O=C(Oc1cccc(Br)c1)N1CCN2CCC1CC2` ? 70
